Origin of values: patent US20110257233A1

Assay: Microsomal stability, mouse
Assay type: in vitro ADME
Settings: mouse liver microsomes
The following compounds are shown together with reported Microsomal Stability (% remaining after 1 hour) values.
Lab book: enter the figure in % remaining, no units written.

Reference set (3 entries):
COc1ccc(-n2sc3ccc(F)cc3c2=O)cc1 | 84.06
O=c1c2cc(F)ccc2sn1-c1ccccc1F | 98.40
O=c1c2cc(F)ccc2sn1-c1ccc(F)cc1 | 81.24

Query string: Can you look up the measured Microsomal Stability (% remaining after 1 hour) of `Cc1ccccc1-n1sc2cc(F)ccc2c1=O` for me?
Result string: 90.03

Query string: Can you look up the measured Microsomal Stability (% remaining after 1 hour) of `Cc1ccc(C)c(-n2sc3ccc(F)cc3c2=O)c1` for me?
Result string: 85.04

====

Target: phosphomannose isomerase (PMI) (Homo sapiens)
Sequence (P34949 whole entry): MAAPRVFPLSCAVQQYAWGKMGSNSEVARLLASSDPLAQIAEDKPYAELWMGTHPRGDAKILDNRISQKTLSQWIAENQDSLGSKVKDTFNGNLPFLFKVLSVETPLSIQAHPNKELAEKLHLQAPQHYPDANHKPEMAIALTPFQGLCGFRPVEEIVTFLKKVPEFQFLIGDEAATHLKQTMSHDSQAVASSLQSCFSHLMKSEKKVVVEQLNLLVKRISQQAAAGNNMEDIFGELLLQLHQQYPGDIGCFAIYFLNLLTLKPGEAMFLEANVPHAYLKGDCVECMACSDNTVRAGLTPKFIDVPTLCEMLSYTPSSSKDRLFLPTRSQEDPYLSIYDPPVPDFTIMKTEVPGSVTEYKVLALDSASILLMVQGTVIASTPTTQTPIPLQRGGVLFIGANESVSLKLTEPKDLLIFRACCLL
Experiment: PMI enzyme inhibition assay
Format: biochemical
observationType: IC50 (µM)
Lab book: enter the figure in µM, no units written.

Query string: Can you look up the measured IC50 of O=c1c2ccccc2sn1-c1ccccc1 [Compound 1, 2-Phenyl-2-hydrobenzo[d]isothiazol-3-one] for me?
Result string: 6.4

====

Experiment: Parallel Artificial Membrane Permeability Assay (PAMPA)
Type: in vitro ADME
Conditions: diffusion through a lipid membrane
observationType: Permeability

Reference set (4 entries):
Cc1ccccc1-n1sc2cc(F)ccc2c1=O | Medium
Cc1ccc(C)c(-n2sc3ccc(F)cc3c2=O)c1 | Medium
COc1ccc(-n2sc3ccc(F)cc3c2=O)cc1 | Low
O=c1c2cc(F)ccc2sn1-c1ccccc1F | Medium

Query string: Can you look up the measured Permeability of `O=c1c2cc(F)ccc2sn1-c1ccc(F)cc1` for me?
Result string: High

====

Assay: Plasma stability, mouse
Assay type: in vitro ADME
observationType: Plasma Stability (% remaining after 1 hour) (% remaining)
Lab book: enter the figure in % remaining, no units written.

Reference set (2 entries):
Cc1ccc(C)c(-n2sc3ccc(F)cc3c2=O)c1 | 99.4
COc1ccc(-n2sc3ccc(F)cc3c2=O)cc1 | 96.3

Query string: Can you look up the measured Plasma Stability (% remaining after 1 hour) of `O=c1c2cc(F)ccc2sn1-c1ccccc1F` for me?
Result string: 106.7

Query string: Can you look up the measured Plasma Stability (% remaining after 1 hour) of `O=c1c2cc(F)ccc2sn1-c1ccc(F)cc1` for me?
Result string: 71.4

Query string: Can you look up the measured Plasma Stability (% remaining after 1 hour) of `Cc1ccccc1-n1sc2cc(F)ccc2c1=O` for me?
Result string: 117.5

====

Target: phosphomannomutase 2 (PMM) (Homo sapiens)
Sequence (O15305 1-246): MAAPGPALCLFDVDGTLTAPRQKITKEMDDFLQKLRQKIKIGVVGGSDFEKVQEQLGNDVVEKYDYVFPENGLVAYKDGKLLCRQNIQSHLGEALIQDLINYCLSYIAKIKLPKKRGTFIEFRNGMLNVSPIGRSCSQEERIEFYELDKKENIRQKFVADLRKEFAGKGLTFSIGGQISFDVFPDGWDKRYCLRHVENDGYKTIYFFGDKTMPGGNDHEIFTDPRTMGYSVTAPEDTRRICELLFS
pIC50: −log10 of the molar value.
observationType: pIC50

Query string: Can you look up the measured pIC50 of `O=c1c2cc(F)ccc2sn1-c1ccccc1` for me?
Result string: < 4.70

Query string: Can you look up the measured pIC50 of `O=c1c2ccccc2sn1-c1cccc(C(F)(F)F)c1` for me?
Result string: < 4.70

Query string: Can you look up the measured pIC50 of `COC(=O)c1cccc(-n2sc3ccccc3c2=O)c1` for me?
Result string: < 4.70

Query string: Can you look up the measured pIC50 of `Cc1ccc(C)c(-n2sc3cc(F)ccc3c2=O)c1` for me?
Result string: 5.14
